- System: OVCAR-4 ovarian
- testMethodNotes: NCI tumour cell line growth inhibition, 48 h
attributeMeasured: TGI

CSCCC(C(=O)O)N(C)C (stereo not given)    > 100 µM
CN(C)c1ccc(-c2cc(-c3ccc(Nc4nc(Nc5ccc(Cl)cc5)nc(Nc5ccc(Cl)cc5)n4)cc3)nc(N)c2C#N)cc1    > 100 µM
Cc1ccc(OCC2OC(n3cnc4c(Cl)nc(Nc5cc(Cl)cc(Cl)c5)nc43)CC2Oc2ccc(C)cc2)cc1 (stereo not given)    59.2 µM
O=C(CCCC(=O)Nc1ccc(Cl)cc1Cl)CC(=O)c1ccc2ccccc2c1    > 100 µM
Cc1cc(Br)c(NC(=O)c2c(-c3c(Cl)cccc3Cl)noc2C)c(Br)c1    > 100 µM
COCCN(CCOC)c1nc(-c2ccccc2)nc2ccccc12    > 100 µM
N#CC(C#N)=C/C=C(\Sc1ccc(Cl)cc1)c1ccc(F)cc1    60.3 µM
COc1ccc(/C=C2\C(=O)N(NC(C)=O)c3ccccc32)cc1    > 100 µM
O=C(NCCC1CNc2ccccc21)OCc1ccccc1 (stereo not given)    > 100 µM
COc1ccc(Nc2cnc3cc(N)cc(N)c3n2)cc1    48.5 µM
